Molecular target: BACE1 (Homo sapiens (Human))
Sequence (P56817 46-501): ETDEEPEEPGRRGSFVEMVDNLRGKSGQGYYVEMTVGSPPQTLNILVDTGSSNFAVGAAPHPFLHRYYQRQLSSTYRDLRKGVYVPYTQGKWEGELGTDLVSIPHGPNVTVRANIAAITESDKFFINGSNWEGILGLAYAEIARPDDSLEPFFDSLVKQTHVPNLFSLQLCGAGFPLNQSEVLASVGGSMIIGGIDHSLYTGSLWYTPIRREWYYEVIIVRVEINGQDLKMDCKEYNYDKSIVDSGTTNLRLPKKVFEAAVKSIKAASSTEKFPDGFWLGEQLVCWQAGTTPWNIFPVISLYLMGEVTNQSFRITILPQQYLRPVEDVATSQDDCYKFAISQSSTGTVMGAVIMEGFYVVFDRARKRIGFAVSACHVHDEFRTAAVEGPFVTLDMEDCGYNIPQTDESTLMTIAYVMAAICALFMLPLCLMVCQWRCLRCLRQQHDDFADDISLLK
Experiment: Cellular Aβ-lowering assay
Details: HEK293 cells stably expressing human APP wt (APP695); Aβ40 in supernatant by ELISA after 18-20 hrs
Experimental: Cellular Aβ-Lowering Assay: Human HEK293 cells which are stably transfected with a vector expressing a cDNA of the human APP wt gene (APP695) were used to assess the potency of the compounds in a cellular assay. […] After stopping the reaction with one volume […] the reaction was measured in an ELISA reader at 450 nm wavelength. The concentrations of Aβ in the culture supernatants were calculated from a standard curve obtained with known amounts of pure Aβ peptide.
recorded metric: IC50 (nM)
Write the number in nM without appending the unit.

Examples from the recorded data:
>  <compound>
C[C@]1(c2cc(NC(=O)c3ccc(OCC(F)F)cn3)ccc2F)N=C(N)OC[C@@H]1F [Example 21]

>  <IC50 (nM)>
13

$$$$
>  <compound>
C[C@]1(c2cc(NC(=O)c3ccc(C(F)F)cn3)ccc2F)N=C(N)OC[C@@H]1F [Example 11]

>  <IC50 (nM)>
3

$$$$
>  <compound>
COc1ccc(C(=O)Nc2ccc(F)c([C@@]3(C)N=C(N)OC[C@@H]3F)c2)nc1 [Example 13]

>  <IC50 (nM)>
4

$$$$
>  <compound>
C[C@]1(c2cc(NC(=O)c3cncs3)ccc2F)N=C(N)OC[C@@H]1F [Example 29]

>  <IC50 (nM)>
250

$$$$
>  <compound>
C[C@]1(c2cc(NC(=O)c3ccc(Cl)cn3)ccc2F)N=C(N)OC[C@@H]1F [Example 1]

>  <IC50 (nM)>
0.4

$$$$

Request the reported IC50 associated with C[C@]1(c2cc(NC(=O)c3ccc(OCC4CC4)cn3)ccc2F)N=C(N)OC[C@@H]1F [Example 23]
15

----------
Target: BACE1 (Homo sapiens (Human))
Experiment: Cellular Aβ-lowering assay
Details: HEK293 cells stably expressing human APP wt (APP695); Aβ40 in supernatant by ELISA after 18-20 hrs
recorded metric: IC50 (nM)
The reply should be a number in nM, with the unit left off.

>  <compound>
C[C@]1(F)COC(N)=N[C@]1(C)c1cc(NC(=O)c2ccc(Cl)cn2)ccc1F

>  <experimental target>
BACE1 (Homo sapiens (Human))

>  <IC50 (nM)>
3

$$$$
>  <compound>
C[C@]1(c2cc(NC(=O)c3ccc(OC(F)F)cn3)ccc2F)N=C(N)OC[C@@H]1F

>  <experimental target>
BACE1 (Homo sapiens (Human))

>  <IC50 (nM)>
2

$$$$

// lookup IC50 for C[C@]1(c2cc(NC(=O)c3ccc(F)cn3)ccc2F)N=C(N)OC[C@@H]1OCC(F)(F)F
2

Field request: IC50 | item: C[C@]1(c2cc(NC(=O)c3ccc(C4CC4)cn3)ccc2F)N=C(N)OC[C@@H]1F
14

Recorded IC50 for C[C@]1(F)COC(N)=N[C@]1(C)c1cc(NC(=O)C2CC2(F)F)ccc1F (stereo partly shown) , please?
32

Item C[C@]1(c2cc(NC(=O)c3ncc(Cl)cc3Cl)ccc2F)N=C(N)OC[C@@H]1OCC(F)(F)F has what recorded IC50?
3

Reported IC50, compound C[C@]1(c2cc(NC(=O)c3ncc(F)cc3F)ccc2F)N=C(N)OC[C@@H]1F : ____
1

Quick check: IC50 of C[C@]1(F)COC(N)=N[C@]1(C)c1cc(NC(=O)c2ccc(C#N)cn2)ccc1F ?
0.4

Return reported IC50; argument: Cn1nc(C(F)(F)F)cc1C(=O)Nc1ccc(F)c([C@@]2(C)N=C(N)OC[C@@H]2F)c1
90

Record request: IC50 value, item Cc1cc(C(=O)Nc2ccc(F)c([C@@]3(C)N=C(N)OC[C@@H]3F)c2)nn1C
760

Data provenance: patent US8754075B2
